# Experimental system: T1, cynomolgus NKG2D-Fc fusion protein (cynomolgus; human, UniProt P61252 73-216)
# T1 construct: extracellular domain; also called cynomolgus recombinant NKG2D-Fc; cynomolgus recombinant NKG2D; not shown: human IgG1 Fc domain
# T1 sequence (looked up): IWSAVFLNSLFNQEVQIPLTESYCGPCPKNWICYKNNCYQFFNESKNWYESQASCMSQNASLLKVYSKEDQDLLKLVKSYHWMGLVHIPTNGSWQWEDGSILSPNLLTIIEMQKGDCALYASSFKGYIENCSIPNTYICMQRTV
# Method notes: ELISA on coated NKG2D-Fc
Metric name: binding result

Binder	Result
ADI-28226 (antibody, V domains shown, also called C26) VH: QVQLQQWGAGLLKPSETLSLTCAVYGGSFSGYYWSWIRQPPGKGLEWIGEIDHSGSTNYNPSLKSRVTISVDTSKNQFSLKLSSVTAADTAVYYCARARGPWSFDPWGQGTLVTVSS VL: DIQMTQSPSTLSASVGDRVTITCRASQSISSWLAWYQQKPGKAPKLLIYKASSLESGVPSRFSGSGSGTEFTLTISSLQPDDFATYYCQQYGSFPITFGGGTKVEIK	binds
ADI-27741 (antibody, V domains shown) VH: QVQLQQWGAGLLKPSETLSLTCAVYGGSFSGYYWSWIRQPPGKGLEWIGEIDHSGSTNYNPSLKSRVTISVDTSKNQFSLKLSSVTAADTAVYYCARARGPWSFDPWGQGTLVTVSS VL: DIQMTQSPSTLSASVGDRVTITCRASQSIGSWLAWYQQKPGKAPKLLIYKASSLESGVPSRFSGSGSGTEFTLTISSLQPDDFATYYCQQSNSYYTFGGGTKVEIK	binds
ADI-29378 (antibody, V domains shown, also called E78) VH: QVQLVQSGAEVKKPGASVKVSCKASGYTFTSYYMHWVRQAPGQGLEWMGIINPSGGSTSYAQKFQGRVTMTRDTSTSTVYMELSSLRSEDTAVYYCAREGAGFAYGMDYYYMDVWGKGTTVTVSS VL: EIVLTQSPATLSLSPGERATLSCRASQSVSSYLAWYQQKPGQAPRLLIYDASNRATGIPARFSGSGSGTDFTLTISSLEPEDFAVYYCQQSDNWPFTFGGGTKVEIK	binds
